Please go through the items and note down their recombinant UMI read abundance (log10).
# protocol_text: recombinant UMI read abundance after kanamycin selection (control-corrected) (log10(CPM+1)); higher = more efficient recombination; extreme values may be limits of the assay; sequences stand for … in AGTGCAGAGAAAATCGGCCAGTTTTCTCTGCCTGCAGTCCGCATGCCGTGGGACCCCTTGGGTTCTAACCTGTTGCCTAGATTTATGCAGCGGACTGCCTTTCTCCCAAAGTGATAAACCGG…AGGTTGGTTTCACT; site = the 11-nt donor;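 note: IS621 bridge recombinase in Escherichia coli cells against a fixed T5 target plasmid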
Write the value as a bare number.

Recall and state the measured recombinant UMI read abundance (log10) for CGGAACCCATGGACCGGTTTTCCCGGTAATCCGTATTTGGT (site CGGAACCCTAC) .
1.06

Provide only the value of recorded recombinant UMI read abundance (log10) for CCCACGCCATGGACCGGTTTTCCCGGTAATCCGTATTTGTA (site CCCACGCCTTA)
0.00594

// fetch recombinant UMI read abundance (log10) given entry AGGTAAACATGGACCGGTTTTCCCGGTAATCCGTATTTGAG (site AGGTAAACTCT)
2.07

For the sequence TATGTGGCATGGACCGGTTTTCCCGGTAATCCGTATTTGTG (site TATTTGGCTCA) , give its measured recombinant UMI read abundance (log10) value.
0.0197

State, in one line, measured recombinant UMI read abundance (log10) of CTGGAAACATGGACCGGTTTTCCCGGTAATCCGTATTTGCG (site CTGGAAACTTG)
1.72

Return recombinant UMI read abundance (log10) for the following sequence: TATGGACCATGGACCGGTTTTCCCGGTAATCCGTATTTGCA (site TATGGACCTTG)
0

Report measured recombinant UMI read abundance (log10); entry is CACACCTCATGGACCGGTTTTCCCGGTAATCCGTATTTGCC (site CACGCCTCTGG)
0

// Input: TTATACTCATGGACCGGTTTTCCCGGTAATCCGTATTTGCA (site TTATACTCTTG) . Output its recombinant UMI read abundance (log10) only.
2.72

Name the recorded recombinant UMI read abundance (log10) of the item CGGGACTCATGGACCGGTTTTCCCGGTAATCCGTATTTGCC (site CGGGAATCTGG) in your answer.
2.14

Hello, please tell me recorded recombinant UMI read abundance (log10) for this one: CGGGACTCATGGACCGGTTTTCCCGGTAATCCGTATTTGCC (site CGGGATTCTGG)
1.77

Give the measured recombinant UMI read abundance (log10) for CCTTATACATGGACCGGTTTTCCCGGTAATCCGTATTTGGC (site CCTCATACTGC)
0.021

Write down recombinant UMI read abundance (log10) measured for item CTGCTAACATGGACCGGTTTTCCCGGTAATCCGTATTTGCT (site CTGCTAGCTAG)
0.313

Return recombinant UMI read abundance (log10) (reported value) for this sequence: TGTTCAGCATGGACCGGTTTTCCCGGTAATCCGTATTTGTA (site TGTTCAGCTTA)
0.141

Give the value of recombinant UMI read abundance (log10) reported for the following: CGGCCATCATGGACCGGTTTTCCCGGTAATCCGTATTTGCT (site CGGCCATCTAG)
1.29

Name the recorded recombinant UMI read abundance (log10) of the sequence listed here: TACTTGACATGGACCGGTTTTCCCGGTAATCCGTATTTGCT (site TACCTGACTAG)
0.89

For the sequence GTTGTTCCATGGACCGGTTTTCCCGGTAATCCGTATTTGTT (site GTTGTTCCTAT) , give its measured recombinant UMI read abundance (log10) value.
0

Look up and report measured recombinant UMI read abundance (log10) for this entry: GGCCACCCATGGACCGGTTTTCCCGGTAATCCGTATTTGCT (site GGCCACCCTAT)
0.00294

For TCTTACCCATGGACCGGTTTTCCCGGTAATCCGTATTTGGA (site TCTTACCCTTC) , write its recombinant UMI read abundance (log10).
0.0207
